Measured CC50 at 5 days by item
- assay.summary: Cytotoxicity Determination
- Format: cell-based
- condition.notes: human, HEp-2 cells, without addition of virus, CCK-8 readout, bins (Table 4: greater than 100 μM; Table 5: equal to or less than 100 μM and greater than 10 μM), read-out: 50% cytotoxicity concentration (CC50)
test.readout: CC50 at 5 days

In [3]: df
Out[3]:
                                test_smiles      reported
0  COc1cc(C(=O)NCC(=O)c2ccc(OC)c(-c3ccncc3)n2)ccc1OCCO      > 100 µM
1  COc1ccc(C(=O)NCC(=O)c2ncc(-c3csc4c(F)cccc34)[nH]2)cc1OC  10 to 100 µM
2  COc1cc(C(=O)N[C@H](CCCCN)C(=O)c2ccc(OC)c(-c3csc4c(F)cccc34)n2)ccc1OCCO  10 to 100 µM
3  COc1ccc(C(=O)NCC(=O)N/N=C/c2csc3c(Cl)cccc23)cc1OC  10 to 100 µM
4  COc1ccc(C(=O)NCC(=O)c2cccc(-n3cnc4c(F)cccc43)n2)cc1OC  10 to 100 µM

---

- assay.summary: Cytotoxicity Determination
- Format: cell-based
- condition.notes: human, HEp-2 cells, without addition of virus, CCK-8 readout, bins (Table 4: greater than 100 μM; Table 5: equal to or less than 100 μM and greater than 10 μM), read-out: 50% cytotoxicity concentration (CC50)
test.readout: CC50 at 5 days

                                    compound      reported
 0  CCN(CC)c1ccc(C(=O)NCC(=O)c2ccc(OC)c(-c3ccc(F)c(Cl)c3)n2)cc1 [Compound 1320]      > 100 µM
 1  CCOc1ccc(C(=O)NCC(=O)N/N=C/c2csc3c(F)cccc23)cc1OC [Compound 400-26]      > 100 µM
 2  COc1cc(Cl)c(C(=O)NCC(=O)N/N=C(\C)c2csc3ccccc23)cc1OC [Compound 482]  10 to 100 µM
 3  COc1cc(C(=O)NC(C)C(=O)c2ccc(OC)c(-c3csc4c(F)cccc34)n2)ccc1OCCO (stereo not drawn) [Compound 1808]  10 to 100 µM
 4  COc1ccc(C(=O)NC(CO)C(=O)c2ccc(OC)c(-c3csc4c(F)cccc34)n2)cc1OC (stereo not drawn) [Compound 1816]      > 100 µM
 5  COc1cc(C(=O)NCC(=O)c2ccc(OC)c(-c3ccc(F)c(Cl)c3)n2)ccc1-c1cnn(C)c1 [Compound 2651]  10 to 100 µM
 6  CCNc1ccc(C(=O)NCC(=O)N/N=C(\C)c2csc3ccccc23)cc1 [Compound 501]  10 to 100 µM
 7  COc1ccc(C(=O)NCC(=O)N/N=C(\CCO)c2csc3c(F)cccc23)cc1OC [Compound 400-13]      > 100 µM
 8  COc1ccc(C(=O)NCC(=O)c2nc(-c3csc4c(F)cccc34)co2)cc1OC [Compound 3201]  10 to 100 µM
 9  CNCCOc1ccc(C(=O)NCC(=O)c2ccc(OC)c(-c3ccc(F)c(Cl)c3)n2)cc1OC [Compound 1313]  10 to 100 µM
10  COc1cc(C(=O)NCC(=O)c2cccc(-c3csc4c(F)cccc34)n2)ccc1OCC(=O)O [Compound 1248]  10 to 100 µM
11  COc1ccc(C(=O)NCC(=O)c2ccc(OC)c(-c3cn[nH]c3)n2)cc1OC [Compound 1533]      > 100 µM
12  COc1cc(C(=O)NCC(=O)c2cc(CO)cc(-c3ccc(F)c(Cl)c3)n2)ccc1OCC1CC1 [Compound 3800]  10 to 100 µM
13  COc1cc(C(=O)NCC(=O)c2ccc(OC)c(-c3ccc(F)c(Cl)c3)n2)ccc1OCc1cnc[nH]1 [Compound 1332]  10 to 100 µM
14  COc1ccc(C(=O)NCC(=O)c2ccc(OC)c(-c3cccnc3C)n2)cc1OC [Compound 1540]      > 100 µM
15  CCOc1ccc(C(=O)NCC(=O)Nc2nc3cc(C(=O)OC)ccc3n2CCOC)cc1OC [Compound 912]  10 to 100 µM
16  CCOc1ccc(C(=O)NCC(=O)N/N=C(\C)c2csc3cnccc23)cc1OC [Compound 466]      > 100 µM
17  COc1ccc(C(=O)NCC(=O)c2cc(C3CC3)cc(-c3csc4c(F)cccc34)n2)cc1OC [Compound 1249]      > 100 µM
18  CCOc1ccc(C(=O)NCC(=O)Nc2nc3cc(C)ccc3n2CCOC)cc1OC [Compound 916]      > 100 µM
19  COc1cc(C(=O)NCC(=O)N/N=C(\CC2CCCCC2)c2csc3c(F)cccc23)ccc1OCCO [Compound 605]  10 to 100 µM
20  COc1ccc(C(=O)N(C)NC(=O)c2cccc(-c3csc4c(F)cccc34)n2)cc1OC [Compound 3101]  10 to 100 µM
